Source: patent US20120129766A1

- System: T1, human β-klotho (human, UniProt Q86Z14 1-1044)
- T1 sequence (looked up): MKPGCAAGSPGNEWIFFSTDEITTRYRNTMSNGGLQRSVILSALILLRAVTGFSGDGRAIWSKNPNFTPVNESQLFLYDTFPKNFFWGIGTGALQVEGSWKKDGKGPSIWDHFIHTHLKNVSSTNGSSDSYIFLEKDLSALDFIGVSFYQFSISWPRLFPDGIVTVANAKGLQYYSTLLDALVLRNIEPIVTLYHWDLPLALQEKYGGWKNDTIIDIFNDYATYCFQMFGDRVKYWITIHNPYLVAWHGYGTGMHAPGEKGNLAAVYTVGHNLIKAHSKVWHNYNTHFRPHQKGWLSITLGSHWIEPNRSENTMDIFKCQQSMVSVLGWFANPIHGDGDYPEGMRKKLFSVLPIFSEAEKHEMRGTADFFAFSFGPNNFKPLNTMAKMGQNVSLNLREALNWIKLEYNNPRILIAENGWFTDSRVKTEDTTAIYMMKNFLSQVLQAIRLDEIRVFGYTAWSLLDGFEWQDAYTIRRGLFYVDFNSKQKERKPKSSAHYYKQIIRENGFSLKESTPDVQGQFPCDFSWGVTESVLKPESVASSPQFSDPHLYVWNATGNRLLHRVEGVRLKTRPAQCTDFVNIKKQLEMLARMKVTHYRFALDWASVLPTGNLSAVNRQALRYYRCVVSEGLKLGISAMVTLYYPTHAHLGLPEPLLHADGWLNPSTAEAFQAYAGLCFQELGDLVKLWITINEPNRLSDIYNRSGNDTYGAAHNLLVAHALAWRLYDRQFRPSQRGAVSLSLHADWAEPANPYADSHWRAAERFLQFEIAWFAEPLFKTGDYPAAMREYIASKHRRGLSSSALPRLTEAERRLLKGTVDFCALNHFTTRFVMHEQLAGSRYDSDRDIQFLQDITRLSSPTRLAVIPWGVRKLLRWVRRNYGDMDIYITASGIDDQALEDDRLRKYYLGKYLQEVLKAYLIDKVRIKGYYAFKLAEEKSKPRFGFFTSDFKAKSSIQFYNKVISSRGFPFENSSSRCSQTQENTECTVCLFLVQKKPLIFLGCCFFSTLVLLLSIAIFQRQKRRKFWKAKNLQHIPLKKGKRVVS
- Assay text: cell-based or functional assay
Metric name: Fold-WT (EC50 of variant / EC50 of FGF21-WT) (fold)
Give the value in fold but do not write fold after it.

Below: 5 binders and their reported Fold-WT (EC50 of variant / EC50 of FGF21-WT).
Lab note: measured Fold-WT (EC50 of variant / EC50 of FGF21-WT) of hFGF21(33-209)-V18 (ligand) DSSPLLQFGGQVRQRYLYTDDAQQTESHLEIREDGTVGGAAHQSPESLLQLKALKPGVIQILGVQTSRFLCQKPDGALYGSLHFDPEACSFRELLLENGYNVYQSEAHGLPLHLPGNRSPHRDPAPQGPARFLPLPGLPPALPEPPGILAPQPPDVGSSDPLAMVGPSQGRSPSYAS was 2.7

Lookup result for hFGF21(33-209)-WT-R154C-40 kDa bPEG-MA (ligand, 40 kDa branched maleimido-PEG on Cys 154 (numbered on SEQ ID NO:1)) DSSPLLQFGGQVRQRYLYTDDAQQTEAHLEIREDGTVGGAADQSPESLLQLKALKPGVIQILGVKTSRFLCQRPDGALYGSLHFDPEACSFRELLLEDGYNVYQSEAHGLPLHLPGNKSPHCDPAPRGPARFLPLPGLPPALPEPPGILAPQPPDVGSSDPLSMVGPSQGRSPSYAS ; measured Fold-WT (EC50 of variant / EC50 of FGF21-WT): 2.9

The measured Fold-WT (EC50 of variant / EC50 of FGF21-WT) associated with hFGF21(33-209)-V13 (ligand) DSSPLLQFGGQVRQRYLYTDDDQQTEAHLEIREDGTVGGAAHQSPESLLQLKALKPGVIQILGVKASRFLCQKPDGALYGSLHFDPEACSFRELLLENGYNVYQSEAHGLPLHLPGNRSPHRDPAPQGPARFLPLPGLPPALPEPPGILAPQPPDVGSSDPLAMVGPSQGRSPSYAS reads 4

Record hFGF21(33-209)-V73-N-40 kDa bPEG-AL (ligand, 40 kDa branched PEG (aldehyde reagent) on the N-terminal amine) DSSPLLQFGGQVRQRYLYTDDAQETEAHLEIREDGTVGGAAHQSPESLLELKALKPGVIQILGVKTSRFLCQKPDGALYGSLHFDPEACSFRELLLEEGYNVYQSEAHGLPLHLPGNRSPHRDPAPQGPARFLPLPGLPPALPEPPGILAPQPPDVGSSDPLAMVGPSQGRSPSYAS . Reported Fold-WT (EC50 of variant / EC50 of FGF21-WT): 66

Briefly, Fold-WT (EC50 of variant / EC50 of FGF21-WT) measured for hFGF21(33-209)-V86 (ligand) DSSPLLQFGGQVRQRYLYTDDAQQTEAHLEIREDGTVGGAADQSPESLLQLRALRPGVIQILGVRTSRFLCQRPDGALYGSLHFDPEACSFRELLLEDGYNVYQSEAHGLPLHLPGNRSPHKDPAPRGPARFLPLPGLPPAPPEPPGILAPQPPDVGSSDPLAMVGPSQGRSPSYAS : 4.5

Others:
# Fold-WT (EC50 of variant / EC50 of FGF21-WT) (binder: hFGF21(33-209)-V7 (ligand) DSSPLLQFGGQVRQRYLYTDDAQETEAHLEIREDGTVGGAAHQSPESLLQLKALKPGVIQILGVKASRFLCQKPDGALYGSLHFDPEACSFRELLLENGYNVYQSEAHGLPLHLPGNRSPHRDPASQGPARFLPLPGLPPALPEPPGILAPQPPDVGSSDPLAMVGPSQARSPSYAS ) is 6.8

hFGF21(33-209)-V10 (ligand) DSSPLLQFGGQVRQRYLYTDDAQETEAHLEIREDGTVGGAAHQSPESLLQLKALKPGVIQILGVKASRFLCQKPDGALYGSLHFDPEACSFRELLLENGYNVYQSETHGLPLHLPGNKSPHRDPASQGPARFLPLPGLPPALPEPPGILAPQPPDVGSSDPLAMVGPSQARSPSYAS has a reported Fold-WT (EC50 of variant / EC50 of FGF21-WT) of 3.3

The binder listed as hFGF21(33-209)-V14-pool1 (ligand) DSSPLLQFGGQVRQRYLYTDDAQETEAHLEIREDGTVGGAAHQSPESLLELKALKPGVIQILGVKTSRFLCQKPDGALYGSLHFDPEACSFRELLLENGYNVYQSEAHGLPLHLPGNRSPHRDPAPQGPARFLPLPGLPPALPEPPGILAPQPPDVGSSDPLAMVGPSQGRSPSYAS has a reported Fold-WT (EC50 of variant / EC50 of FGF21-WT) of 1.4
